Provide the recorded SODIUM for the entries that follow.
Species: Rattus norvegicus
Assay: DrugMatrix - Regimen: Daily Repeat
Format: toxicity, organism-based, Sprague-Dawley
Parameters: regimen Daily Repeat, gender Male, age 6-8 weeks
Settings: in vivo, po, 0 mg/kg, 72 h, tissue Plasma, route oral GAVAGE, dose level Control, time 3 day, vehicle 100 % SALINE
Answer in MEQ/L, number only, no unit symbol.

*Q* Return SODIUM (reported value) for this molecule: `CCN(CC)N=O`
*A* 145.12

*Q* Return SODIUM (reported value) for this molecule: `CCO`
*A* 145.15

*Q* Return SODIUM (reported value) for this molecule: O=[As][O-].[Na+] [SODIUM ARSENITE]
*A* 145.15

*Q* Return SODIUM (reported value) for this molecule: `Cc1ccnc2c1NC(=O)c1cccnc1N2C1CC1`
*A* 142

*Q* Return SODIUM (reported value) for this molecule: CC(CN1c2ccccc2Sc2ccccc21)N(C)C (stereo not given)
*A* 141.68

----------
Provide the recorded ABSOLUTE EOSINOPHIL for the entries that follow.
Organism: Rattus norvegicus
Experiment: DrugMatrix - Regimen: Daily Repeat
Format: toxicity, organism-based, Sprague-Dawley
Parameters: regimen Daily Repeat, gender Male, age 6-8 weeks
Settings: in vivo, po, 1500 mg/kg, 120 h, tissue Blood, route oral GAVAGE, dose level High, time 5 day, vehicle .5 % CMC
Answer in CELLS/uL, number only, no unit symbol.

*Q* Return ABSOLUTE EOSINOPHIL (reported value) for this molecule: `O=C(O)CCc1nc(-c2ccccc2)c(-c2ccccc2)o1`
*A* 0

*Q* Return ABSOLUTE EOSINOPHIL (reported value) for this molecule: Cc1ccc(S(=O)(=O)NC(=O)NN2CCCCCC2)cc1 [TOLAZAMIDE]
*A* 47.67

*Q* Return ABSOLUTE EOSINOPHIL (reported value) for this molecule: `CC[C@H]1OC(=O)[C@H](C)[C@@H](O[C@H]2C[C@@](C)(OC)[C@@H](O)[C@H](C)O2)[C@H](C)[C@@H](O[C@@H]2O[C@H](C)C[C@H](N(C)C)[C@H]2O)[C@](C)(O)C[C@@H](C)C(=O)[C@H](C)[C@@H](O)[C@]1(C)O`
*A* 0

*Q* Return ABSOLUTE EOSINOPHIL (reported value) for this molecule: COc1cc(/C=C/C(=O)O)ccc1O [FERULATE]
*A* 97

----------
Provide the recorded ABSOLUTE MONOCYTE for the entries that follow.
Organism: Rattus norvegicus
Assay: DrugMatrix - Regimen: Daily Repeat
Assay type: toxicity, organism-based, Sprague-Dawley
Set-up: regimen Daily Repeat, gender Male, age 6-8 weeks
Conditions: in vivo, po, 0 mg/kg, 120 h, tissue Blood, route oral GAVAGE, dose level Control, time 5 day, […]
Answer in CELLS/uL, number only, no unit symbol.

*Q* Return ABSOLUTE MONOCYTE (reported value) for this molecule: `CC(C)(c1ccc(O)cc1)c1ccc(O)cc1`
*A* 72.5

*Q* Return ABSOLUTE MONOCYTE (reported value) for this molecule: `CCOC(=O)C1=C(C)NC(C)=C(C(=O)OCC)C1c1ccccc1/C=C/C(=O)OC(C)(C)C`
*A* 47

*Q* Return ABSOLUTE MONOCYTE (reported value) for this molecule: O=C(Nc1ccc(Cl)c(Cl)c1)c1cc(Cl)cc(Cl)c1O [3,3',4',5-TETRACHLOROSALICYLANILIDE]
*A* 117

*Q* Return ABSOLUTE MONOCYTE (reported value) for this molecule: `CC#C[C@]1(O)CC[C@H]2[C@@H]3CCC4=CC(=O)CCC4=C3[C@@H](c3ccc(N(C)C)cc3)C[C@@]21C`
*A* 82.83

*Q* Return ABSOLUTE MONOCYTE (reported value) for this molecule: `CS(=O)(=O)c1ccc(C2=C(c3ccccc3)C(=O)OC2)cc1`
*A* 90.5

*Q* Return ABSOLUTE MONOCYTE (reported value) for this molecule: Cc1cccc(C)c1NC(=O)C(C)N (stereo unspecified) [TOCAINIDE]
*A* 341.33

*Q* Return ABSOLUTE MONOCYTE (reported value) for this molecule: `Oc1ncnc2[nH]ncc12`
*A* 172.5

*Q* Return ABSOLUTE MONOCYTE (reported value) for this molecule: `c1ccc2c(c1)Nc1ccccc1S2`
*A* 90.5

*Q* Return ABSOLUTE MONOCYTE (reported value) for this molecule: `CO[C@H]1O[C@@H]2O[C@@]3(C)CC[C@H]4[C@H](C)CC[C@@H]([C@H]1C)[C@@]24OO3`
*A* 238.5

*Q* Return ABSOLUTE MONOCYTE (reported value) for this molecule: `O=C(O)COC(=O)Cc1ccccc1Nc1c(Cl)cccc1Cl`
*A* 84.67

*Q* Return ABSOLUTE MONOCYTE (reported value) for this molecule: `COC(=O)Nc1nc2ccc(C(=O)c3ccccc3)cc2[nH]1`
*A* 84.67

----------
Species: Rattus norvegicus
Test: DrugMatrix - Regimen: Daily Repeat
Assay type: toxicity, organism-based, Sprague-Dawley
Parameters: regimen Daily Repeat, gender Male, age 6-8 weeks
Settings: in vivo, iv, 0 mg/kg, 72 h, tissue Plasma, dose level Control, time 3 day, vehicle 100 % SALINE
Provide the recorded BLOOD UREA NITROGEN for the entries that follow.
Answer in mg/dL, number only, no unit symbol.

*Q* Return BLOOD UREA NITROGEN (reported value) for this compound: `CC(=O)[C@]1(O)Cc2c(O)c3c(c(O)c2[C@@H](O[C@H]2C[C@H](N)[C@H](O)[C@H](C)O2)C1)C(=O)c1ccccc1C3=O`
*A* 18.5

*Q* Return BLOOD UREA NITROGEN (reported value) for this compound: `CO[C@@]12[C@H](COC(N)=O)C3=C(C(=O)C(C)=C(N)C3=O)N1C[C@@H]1N[C@@H]12`
*A* 16

*Q* Return BLOOD UREA NITROGEN (reported value) for this compound: `Cc1c(N)nc([C@H](CC(N)=O)NC[C@H](N)C(N)=O)nc1C(=O)N[C@H](C(=O)N[C@H](C)[C@@H](O)[C@H](C)C(=O)N[C@H](C(=O)NCCc1nc(-c2nc(C(=O)NCCC[S+](C)C)cs2)cs1)[C@@H](C)O)[C@@H](O[C@@H]1O[C@@H](CO)[C@@H](O)[C@H](O)[C@@H]1O[C@H]1O[C@H](CO)[C@@H](O)[C@H](OC(N)=O)[C@@H]1O)c1c[nH]cn1.[Br-]`
*A* 14.83

*Q* Return BLOOD UREA NITROGEN (reported value) for this compound: `COC(=O)C[C@](O)(CCC(C)(C)O)C(=O)O[C@@H]1C(OC)=C[C@]23CCCN2CCc2cc4c(cc2[C@H]13)OCO4`
*A* 16.33

----------
Species: Rattus norvegicus
Assay: DrugMatrix - Regimen: Daily Repeat
Type: toxicity, organism-based, Sprague-Dawley
Set-up: regimen Daily Repeat, gender Male, age 6-8 weeks
Conditions: in vivo, po, 0 mg/kg, 72 h, tissue Plasma, route oral GAVAGE, dose level Control, time 3 day, vehicle 100 % SALINE
Value Kind: BLOOD UREA NITROGEN (mg/dL)
Answer in mg/dL, number only, no unit symbol.

*Q* Return BLOOD UREA NITROGEN (reported value) for this molecule: CCN(CC)N=O [N-NITROSODIETHYLAMINE]
*A* 15.83

*Q* Return BLOOD UREA NITROGEN (reported value) for this molecule: Cc1ccnc2c1NC(=O)c1cccnc1N2C1CC1 [NEVIRAPINE]
*A* 14.17

*Q* Return BLOOD UREA NITROGEN (reported value) for this molecule: CCO [ALCOHOL]
*A* 14.33

*Q* Return BLOOD UREA NITROGEN (reported value) for this molecule: CC(CN1c2ccccc2Sc2ccccc21)N(C)C (stereo not given) [PROMETHAZINE]
*A* 13.83

*Q* Return BLOOD UREA NITROGEN (reported value) for this molecule: O=[As][O-].[Na+] [SODIUM ARSENITE]
*A* 14.33

----------
Organism: Rattus norvegicus
Assay: DrugMatrix - Regimen: Daily Repeat
Assay type: toxicity, organism-based, Sprague-Dawley
Parameters: regimen Daily Repeat, gender Male, age 6-8 weeks
Conditions: in vivo, po, 0 mg/kg, 72 h, tissue Blood, route oral GAVAGE, dose level Control, time 3 day, vehicle 100 % WATER
Quick rule for you: ABSOLUTE EOSINOPHIL under 20 CELLS/uL gets 1.0, anything else gets 0.0.

*Q* Is the reported ABSOLUTE EOSINOPHIL for CC(Cl)(Cl)Cl [TRICHLOROETHANE] strictly below 20 CELLS/uL?
*A* 0.0

*Q* Is the reported ABSOLUTE EOSINOPHIL for CCC1(c2ccccc2)C(=O)NC(=O)NC1=O [PHENOBARBITAL] strictly below 20 CELLS/uL?
*A* 0.0

*Q* Is the reported ABSOLUTE EOSINOPHIL for Cc1cc(C(C)(C)C)c(O)c(C)c1CC1=NCCN1 [OXYMETAZOLINE] strictly below 20 CELLS/uL?
*A* 0.0

*Q* Is the reported ABSOLUTE EOSINOPHIL for Cc1cn([C@H]2C=C[C@@H](CO)O2)c(=O)[nH]c1=O [STAVUDINE] strictly below 20 CELLS/uL?
*A* 1.0

*Q* Is the reported ABSOLUTE EOSINOPHIL for `CCN(CC)C(=S)SSC(=S)N(CC)CC` strictly below 20 CELLS/uL?
*A* 0.0

*Q* Is the reported ABSOLUTE EOSINOPHIL for C1CCN2C[C@@H]3C[C@@H](CN4CCCC[C@@H]34)[C@H]2C1 [SPARTEINE] strictly below 20 CELLS/uL?
*A* 0.0

*Q* Is the reported ABSOLUTE EOSINOPHIL for C[N+](C)(C)CCOC(N)=O.[Cl-] [CARBACHOL] strictly below 20 CELLS/uL?
*A* 1.0
